assay: CMC and static surface tension, maximum bubble pressure method; assay type: physicochemical
measured-attribute: HEAD GROUP SIZE (Å^2)
Give just the number in Å^2; leave the unit off.

Reference set (4 entries):
CCCCCCCCCCO[C@@H]1O[C@H](CO)[C@@H](O)[C@H](O)[C@H]1O [DG, n-Decyl-β-D-glucopyranoside]; 32
CCCCCCCCCO[C@@H]1O[C@H](CO)[C@@H](O[C@H]2O[C@H](CO)[C@@H](O)[C@H](O)[C@H]2O)[C@H](O)[C@H]1O [NM, n-Nonyl-β-D-maltopyranoside]; 59
CCCCCCCCO[C@@H]1O[C@H](CO)[C@@H](O[C@H]2O[C@H](CO)[C@@H](O)[C@H](O)[C@H]2O)[C@H](O)[C@H]1O [OM, n-Octyl-β-D-maltopyranoside]; 61
CCCCCCCCO[C@@H]1O[C@H](CO)[C@@H](O)[C@H](O)[C@H]1O [OG, n-Octyl-β-D-glucopyranoside]; 40

Kindly consider the entry below.
IN: Consider the compound CCCCCCCCCCO[C@@H]1O[C@H](CO)[C@@H](O[C@H]2O[C@H](CO)[C@@H](O)[C@H](O)[C@H]2O)[C@H](O)[C@H]1O [DM, n-Decyl-β-D-maltopyranoside] and give its measured HEAD GROUP SIZE.
OUT: 42

###

assay: CMC and static surface tension, maximum bubble pressure method; format: physicochemical; conditions: 37° C., CD CHO-A medium
measured-attribute: CMC

CCCCCCCCCO[C@@H]1O[C@H](CO)[C@@H](O[C@H]2O[C@H](CO)[C@@H](O)[C@H](O)[C@H]2O)[C@H](O)[C@H]1O [NM, n-Nonyl-β-D-maltopyranoside]; 6 mM

IN: Consider the compound CCCCCCCCCCCC[N+](C)(C)C.[Br-] [DTAB, Dodecyltrimethyl ammonium bromide] and give its measured CMC.
OUT: 7.0 mM

IN: Consider the compound CCCCCCCCCCCCCCCC[N+](C)(C)C.[Br-] [CTAB, Hexadecyltrimethyl ammonium bromide] and give its measured CMC.
OUT: 1.3 mM

IN: Consider the compound CCCCCCCCCCCC[N+](C)(C)[O-] [DDAO, N,N-Dimethyldodecyl amine N-oxide] and give its measured CMC.
OUT: 2.0 mM

IN: Consider the compound CCCCCCCCS[C@@H]1O[C@H](CO)[C@@H](O)[C@H](O)[C@H]1O [OT, n-Octyl-β-D-thioglucopyranoside] and give its measured CMC.
OUT: 11.0 mM

IN: Consider the compound CCCCCCCCOS(=O)(=O)[O-].[Na+] [SOS, Sodium octyl sulfate] and give its measured CMC.
OUT: 85.6 mM

###

assay: CMC and static surface tension, maximum bubble pressure method; assay type: physicochemical; conditions: cell culture medium at 37° C.
Item-by-item account of CMC SURFACE TENSION
Give just the number in DYN/CM; leave the unit off.

CCCCCCCCO[C@@H]1O[C@H](CO)[C@@H](O)[C@H](O)[C@H]1O [OG, n-Octyl-β-D-glucopyranoside]; 32.5

Kindly consider the entry below.
IN: Consider the molecule CCCCCCCCCCO[C@@H]1O[C@H](CO)[C@@H](O[C@H]2O[C@H](CO)[C@@H](O)[C@H](O)[C@H]2O)[C@H](O)[C@H]1O [DM, n-Decyl-β-D-maltopyranoside] and give its measured CMC SURFACE TENSION.
OUT: 38.9

###

experiment: CMC and static surface tension, maximum bubble pressure method; type: physicochemical; details: 37° C., CD CHO-A medium
Under this convention, y denotes CMC strictly below 8 mM and n denotes CMC at or above 8 mM.

CCCCCCCCCCO[C@@H]1O[C@H](CO)[C@@H](O[C@H]2O[C@H](CO)[C@@H](O)[C@H](O)[C@H]2O)[C@H](O)[C@H]1O [DM, n-Decyl-β-D-maltopyranoside]; y
CCCCCCCCCCOS(=O)(=O)[O-].[Na+] [SDeS, Sodium decyl sulfate]; n
CCCCCCCCCCCCOS(=O)(=O)[O-].[Na+] [SDS, Sodium dodecyl sulfate]; y
CCCCCCCCCC[N+](C)(C)[O-] [DDeAO, N,N-Dimethyldecyl amine N-oxide]; y
CCCCCCCCO[C@@H]1O[C@H](CO)[C@@H](O[C@H]2O[C@H](CO)[C@@H](O)[C@H](O)[C@H]2O)[C@H](O)[C@H]1O [OM, n-Octyl-β-D-maltopyranoside]; n
CCCCCCCCCCO[C@@H]1O[C@H](CO)[C@@H](O)[C@H](O)[C@H]1O [DG, n-Decyl-β-D-glucopyranoside]; y
OC[C@H]1O[C@H](O[C@H]2[C@H](O)[C@@H](O)[C@H](OCCCCC3CCCCC3)O[C@@H]2CO)[C@H](O)[C@@H](O)[C@@H]1O [CM4, 4-Cyclohexyl-1-butyl-β-D-maltoside]; y

Pending molecule:
IN: Is 8 mM strictly greater than the molecule's reported CMC? molecule: CCCCCCCCO[C@@H]1O[C@H](CO)[C@@H](O)[C@H](O)[C@H]1O [OG, n-Octyl-β-D-glucopyranoside]
OUT: n

###

Item-by-item account of CMC SURFACE TENSION
experiment: CMC and static surface tension, maximum bubble pressure method; assay type: physicochemical; details: cell culture medium at 37° C.
Give just the number in DYN/CM; leave the unit off.

Reference set (2 entries):
CCCCCCCCCCO[C@@H]1O[C@H](CO)[C@@H](O)[C@H](O)[C@H]1O [DG, n-Decyl-β-D-glucopyranoside]; 31.5
CCCCCCCCCO[C@@H]1O[C@H](CO)[C@@H](O[C@H]2O[C@H](CO)[C@@H](O)[C@H](O)[C@H]2O)[C@H](O)[C@H]1O [NM, n-Nonyl-β-D-maltopyranoside]; 40.1

Kindly consider the entry below.
IN: Consider the compound CCCCCCCCO[C@@H]1O[C@H](CO)[C@@H](O[C@H]2O[C@H](CO)[C@@H](O)[C@H](O)[C@H]2O)[C@H](O)[C@H]1O [OM, n-Octyl-β-D-maltopyranoside] and give its measured CMC SURFACE TENSION.
OUT: 41.5
